# System: NIH3T3
# protocol_details: Cytotoxic Profiling of Annotated Libraries Using Quantitative High-Throughput Screening (AID 1296008); note: nearly all actives have a fitted effect of over 60% in size; for max response: % is set by controls: 0 for no effect and ±100 for the full control effect
# condition_description: Five cell lines viability, CellTiter-Glo ATP luminescence, 48-72 h; hits give low values
Results filed as inconclusive are left out. Where a SMILES comes first, the peptide text is derived from it. [ ]: non-standard residue; d: D form. Hyp = O=C(O)[CH]1C[CH](O)CN1; Phe(ol) = N[CH](CO)Cc1ccccc1; Iva = CC[C](C)(N)C(=O)O; Aib = CC(C)(N)C(=O)O
# reported max response; entries follow
Record the value in %, omitting the unit from your answer.

compound="CC(=O)C1(C)CCC2C3C=C(C)C4=CC(=O)CCC4(C)C3CCC21C (configuration not stated)" readout_kind="max response" unit_text=% numeric_value=-16.2
compound=COc1ccc(OC)c(-c2ccc(NC(=O)c3ccncc3F)cc2)c1 readout_kind="max response" unit_text=% numeric_value=0.707
compound=Nc1nc(OCc2cc(Br)cs2)c2[nH]cnc2n1 readout_kind="max response" unit_text=% numeric_value=2.13
compound=COc1cc(C(=O)NC(=S)Nc2cccc(NC(=O)c3ccccc3)c2)cc(OC)c1OC readout_kind="max response" unit_text=% numeric_value=4.46
compound="CCC(C)(NC(=O)C(CCC(N)=O)NC(=O)C1CC(O)CN1C(=O)C(C)(C)NC(=O)C(C)(C)NC(=O)C(CC(C)C)NC(=O)CNC(=O)C(NC(=O)C(C)(C)NC(=O)C(C)(C)NC(=O)C(C)(C)NC(=O)C(Cc1ccccc1)NC(C)=O)C(C)C)C(=O)N1CC(O)CC1C(=O)NC(C)(C)C(=O)NC(CO)Cc1ccccc1 (configuration not stated) (Ac-F[Aib][Aib][Aib]VGL[Aib][Aib][Hyp]Q[Iva][Hyp][Aib][Phe(ol)]; configuration not given here)" readout_kind="max response" unit_text=% numeric_value=2.9

The compound listed as "O=C(N[C@@H]1CCCc2c1cnn2-c1ccc(F)cc1F)c1ccccn1" has a reported max response of 3.41

The compound listed as "CC(C)OC(=O)N1CCC(Oc2ncnc3c2cnn3-c2ccc(S(C)(=O)=O)cc2F)CC1" has a reported max response of -1.21

====

# Tested on: KB-3-1
# protocol_details: Cytotoxic Profiling of Annotated Libraries Using Quantitative High-Throughput Screening (AID 1296008); note: nearly all actives have a fitted effect of over 60% in size; note: potency is the fitted concentration of half-maximal effect
# condition_description: Five cell lines viability, CellTiter-Glo ATP luminescence, 48-72 h
Inconclusive results are not listed. Activity calls are given as the source filed them. The call rests on the fitted dose curve; in most records, active means well fitted inhibition curve with a large enough effect; inconclusive means small, poorly fitted or top-dose-only effect; inactive means flat fitted curve, though single readings scatter.
readout_kind: Potency

compound="C=C1CC[C@@H]2[C@](C)(CO)[C@H](O)CC[C@@]2(C)[C@@H]1C/C=C1/C(=O)OCC1OC(=O)/C(=C/CO)C(O)C[C@@H]1C(=C)CC[C@@H]2[C@](C)(CO)[C@H](O)CC[C@]21C (stereo partly specified)" readout_kind=Potency result=inactive
compound="CCC(C)[C@H]1O[C@]2(C=C[C@@H]1C)C[C@@H]1C[C@@H](C/C=C(\\C)[C@@H](O[C@H]3C[C@H](OC)[C@@H](O[C@H]4C[C@H](OC)[C@H](NC(C)=O)[C@H](C)O4)[C@H](C)O3)[C@@H](C)/C=C/C=C3\\CO[C@@H]4[C@H](O)C(C)=C[C@@H](C(=O)O1)[C@]34O)O2 (stereo partly specified)" readout_kind=Potency result="9.2 µM (active)"
compound=CNc1nc(Nc2ccc(C(=O)N3CCOCC3)cc2OC)nc2[nH]cc(Cl)c12 readout_kind=Potency result="10.3 µM (active)"
compound="C=C1C(=O)OC2/C=C(\\CO)CC/C=C(\\C=O)C(OC)C(OC(=O)C(C)CC)C12 (stereo unspecified)" readout_kind=Potency result=inactive
compound="Cc1c(NC(=O)c2cc3c(s2)CCCC3)cccc1-c1cn(C)c(=O)c(Nc2ccc(C3C(=O)N(C)CCN3C)cc2)n1 (stereo unspecified)" readout_kind=Potency result=inactive

Pending compound:
Recorded Potency for "CC(=O)O[C@H]1CC[C@]2(C)[C@H]3CC[C@]4(C)Oc5oc(C)cc(=O)c5C[C@H]4[C@]3(C)CC[C@H]2C1(C)C" on KB-3-1 was inactive
